System: COLO 320
Assay: Induction of apoptosis in human COLO320 cells at 2 uM after 24 hrs by Annexin V-FITC/propidium iodide staining based flow cytometry relative to M627
Type: functional
experimental.readout: Activity (%)
One number for each entry, in %.

compound="O=C1OC(=O)c2ccccc21 [PHTHALIC ANHYDRIDE]" system_tested="COLO 320" readout_number=6.06
compound=NC(=O)C[Se]C(=O)c1ccccc1 system_tested="COLO 320" readout_number=37.3
compound=O=C(C[Se]C(=O)c1ccccc1)Oc1ccccc1 system_tested="COLO 320" readout_number=43

For each listed entry, give its Activity.
1. C[Se]C(=O)c1cccc(C(=O)[Se]C)n1
2. N#C[Se-].[K+]
3. N#C[O-].[K+]
4. COC(=O)C[Se]C(=O)c1ccc(Cl)cc1

Given back:
1. 36.9
2. 6.98
3. 7.28
4. 43.4
